- System: HCT-116 colon
- protocol notes: NCI tumour cell line growth inhibition, 48 h
Kindly state TGI for each of the entries shown.

Examples with their reported TGI follow.
- ClC1=C(Cl)C2OC3C=CCC3OC2C(Cl)=C1Cl (stereo not drawn): > 100 µM
- Nc1ccn(CC(O)c2cc3ccccc3[nH]2)c(=O)n1 (stereo not drawn): > 100 µM
- C=C1CC(O)C2C(=C)C(=O)OC2C2C(C)C(=O)CC12 (stereo not drawn): > 100 µM
- COC(=O)C(CNC(=O)/C=C/c1ccc(OC(C)=O)c(OC(C)=O)c1)NC(=O)/C=C/c1ccc(OC(C)=O)c(OC(C)=O)c1 (stereo not drawn): > 100 µM
- CCOC(=O)Cc1cc(=O)[nH]c(-n2[nH]c(C)c(CCO)c2=O)n1: > 100 µM

Provide each entry's TGI from the list below.
1. CSc1nc(-c2ccccc2)nc(=[N+]2CCOCC2)s1
2. C1CC[N-]CC1.CC(=N\O)/C(C)=N/O.CC(=N\O)/C(C)=N/O.C[CH-]C(C)O.[Co+2]
3. O=C1C=CC(=O)c2c(O)c(N(CCCl)CCCl)c(Cl)c(O)c21
4. OCC(S)CS.[Bi] (stereo not drawn)
5. C[C@H]1CC[C@@H]2[C@@H](C)[C@H]3[C@H](C[C@H]4[C@@H]5CC=C6C[C@@H](O)CC[C@]6(C)[C@H]5CC[C@]34C)N2C1
6. COc1ccc(C2=Nc3c(nc(SC)[nH]c3=O)NC(c3ccccc3)C2)cc1 (stereo not drawn)
7. N#CNC1=NCCC(=O)N1CCc1c[nH]c2ccccc12
8. NC(=S)NS(=O)(=O)c1ccc(Cl)cc1

Result:
["> 100 µM", "36.7 µM", "5.68 µM", "44.4 µM", "> 100 µM", "> 100 µM", "> 100 µM", "> 100 µM"]

----------
- Test system: UACC-62 melanoma
- protocol notes: NCI tumour cell line growth inhibition, 48 h; in the data active means GI50 below about 0.43 µM; inactive means the rest
API: response.call in yes (1) for active, no (0) for inactive

Look over these answered cases.
- N#Cc1cc2c(cc1Cl)SC(=Nc1ccccc1)N(S(=O)(=O)c1ccc(Br)s1)S2(=O)=O: no (0)
- COc1ccc(C2C3=C(COC3=O)N(CCO)c3cc4c(cc32)CCC4)cc1 (stereo not drawn): no (0)
- COc1cc2c(=O)n(CC3CCCCC3)c3c4cc[nH]c4ncc3c2cc1OC: no (0)

Q: Write down the call the test reported for this compound. Item: N=C1C=C(N)C(=O)c2ccccc21
Result: yes (1)

Q: Next compound: COC(=O)[C@@H](C)C[C@H](Cc1ccccc1)NC(=O)c1csc([C@@H](C[C@H](C(C)C)N(C)C(=O)[C@@H](NC(=O)[C@H]2CCCCN2C)C(C(F)(F)F)C(F)(F)F)OC(C)=O)n1
Result: yes (1)

Q: Next compound: CS(=O)(=O)CCNCc1ccoc1-c1ccc2ncnc(Nc3ccc(OCc4ccccc4)cc3)c2c1
Result: no (0)

Q: Next compound: Cn1cccc1-c1cc(-c2ccccc2)nc(N)c1C#N
Result: no (0)

Q: Next compound: N=C(N)c1ccc(-c2ccc(-c3ccc(Cl)cc3Cl)s2)nc1
Result: no (0)

----------
- Test system: RPMI-8226 leukemia
- protocol notes: NCI tumour cell line growth inhibition, 48 h
Kindly state TGI for each of the entries shown.
Numbers only, in µM.

• CCCCCC/C(CC(=O)CCC(=O)NCCc1ccccc1)=N\Nc1ccc([N+](=O)[O-])cc1[N+](=O)[O-] = 81.7
• C1CC[N-]CC1.CC(=N\O)/C(C)=N/O.CC(=N\O)/C(C)=N/O.C[CH-]C(C)O.[Co+2] = 43.4

Q: For the molecule shown here, CC[C@@H](C(=O)[C@@H](C)[C@@H](O)[C@H](C)[C@@H]1O[C@@H]([C@@H](CC)C(=O)O)CC[C@@H]1C)[C@H]1O[C@]2(C=C[C@@H](O)[C@]3(CC[C@@](C)([C@H]4CC[C@](O)(CC)[C@H](C)O4)O3)O2)[C@H](C)C[C@@H]1C , give the reported TGI.
Result: 3.75

----------
- System: A498 renal
- protocol notes: NCI tumour cell line growth inhibition, 48 h
Kindly state TGI for each of the entries shown.

Examples with their reported TGI follow.
• CCN1CCC(O)(/C=C/c2ccccc2)C(C(=O)/C=C/c2ccccc2)C1 (stereo unspecified) = 18.4 µM
• C=C(Cl)CN1c2ccccc2C=Cc2ccccc21 = 66.9 µM
• CCOC(=O)C(=O)Nc1nc2ccc(C)cc2s1 = > 100 µM
• ClC1=C(Cl)C2OC3C=CCC3OC2C(Cl)=C1Cl (stereo unspecified) = > 100 µM
• COC(=O)C(/C(=N\O)C(=O)Nc1ccc(Br)cc1)c1nc2ccccc2[nH]c1=O (stereo unspecified) = > 100 µM

Continue with the molecule presented below.
Q: For the molecule shown here, COC(=O)c1cc(C)[nH]c2c(C)cc3nc4ccccc4c3c12 , give the reported TGI.
Result: 21.2 µM

----------
- Test system: RXF 393 renal
- protocol notes: NCI tumour cell line growth inhibition, 48 h; in the data active = GI50 below about 0.43 µM; inactive = the rest
API: response.call in active, inactive

• C1CC[N-]CC1.CC(=N\O)/C(C)=N/O.CC(=N\O)/C(C)=N/O.C[CH-]C(C)O.[Co+2] = inactive
• C[C@@H](C[C@H](CCO)c1ccccc1)c1ccc2ccccc2c1 = inactive
• N=C(N)c1ccc(-c2ccc(-c3ccc(Cl)cc3Cl)s2)nc1 = inactive
• CN(C)CCOc1ccc2c(c1)C(=O)/C(=C\c1ncc([N+](=O)[O-])n1C)C2 = active

Now, please, on to the next compound.
Q: Write down the call the test reported for this compound. Item: c1ccc(-c2cc3n4c(-c5ccccc5)nn(-c5ccccc5)c4cnc-3n2)cc1
Result: inactive

----------
- Tested on: DMS 114 small cell lung
- protocol notes: NCI tumour cell line growth inhibition, 48 h
endpoint: TGI

- COC(=O)C#CC(N)=O: > 100 µM

Provide each entry's TGI from the list below.
1. C[C@H]1CCC2C(OC(=O)[C@@H]2CN(C)C)[C@]2(C)C(=O)C=CC12O (stereo not given in full)
2. CC1OC(=O)N2CCC=CC12 (stereo not given)

Result:
1: 11.6 µM; 2: > 100 µM

Provide each entry's TGI from the list below.
1. CCOC(=O)C(=O)Nc1nc2ccc(C)cc2s1
2. NC1=Nc2ccccc2Sc2ccccc21

Result:
["> 100 µM", "> 100 µM"]

----------
- Test system: NCI-H226 lung
- protocol notes: NCI tumour cell line growth inhibition, 48 h
endpoint: TGI

Examples with their reported TGI follow.
* Cc1nc2sc(C(=O)Nc3ccccc3)c(N)c2cc1C(=O)c1ccccc1 | > 50 µM
* C#C[C@@H](CCCC)OC(=O)N[C@H](C)c1ccccc1 | 82 µM
* O=c1[nH]c2ccc(C(F)(F)F)cc2nc1C(F)(F)F | 89 µM
* Cc1nccn1S(=O)(=O)c1ccc(Cl)cc1 | > 100 µM

Provide each entry's TGI from the list below.
1. CC(CC(=O)Nc1ccc(NC(=O)CC(C)N=NC(N)=O)cc1)N=NC(N)=O (stereo not drawn)
2. Cn1cccc1-c1cc(-c2ccccc2)nc(N)c1C#N
3. CC1=C2C3OC(=O)C(C)C3C(O)C[C@@]2(C)C(=O)CC1 (stereo partly drawn)
4. O=C1Nc2ccccc2SC1=C(C(=O)c1ccccc1)C(=O)c1ccccc1
5. COc1ccc(/C=C/C(=O)c2ccc(Nc3nc(Nc4ccc(F)cc4)nc(Nc4ccc(F)cc4)n3)cc2)cc1
6. NC(=O)c1nc(-c2ccc(Cl)c(Cl)c2)nc2ccccc12
7. O=C1CC2OCC=C3CN4CCC5(C(=O)O)C(N1)C2C3CC45 (stereo not drawn)
8. COC(=O)C(/C(=N\O)C(=O)Nc1ccc(Br)cc1)c1nc2ccccc2[nH]c1=O (stereo not drawn)

Result:
> 100 µM
> 100 µM
> 100 µM
> 87.5 µM
65.7 µM
> 100 µM
> 100 µM
71.9 µM

Provide each entry's TGI from the list below.
1. C=C1C(=O)OC2(C)CCC1CC1OC1(C)CCC=C(C)CCC2O (stereo not drawn)
2. COc1ccc(C2C3=C(COC3=O)N(CCO)c3cc4c(cc32)CCC4)cc1 (stereo not drawn)
3. CC(C)=CCC[C@@H](C)C1=C(O)C(Nc2ccccc2)=C(C)C(=O)C1=O
4. Nc1ncc2c(n1)-c1ccccc1OC2
5. Cc1cc2nc(-c3ccc(O)c(O)c3)n(Cc3ccc(O)c(O)c3)c2cc1C

Result:
1: > 100 µM; 2: > 50 µM; 3: > 73.4 µM; 4: > 100 µM; 5: 35 µM

----------
- System: MOLT-4 leukemia
- protocol notes: NCI tumour cell line growth inhibition, 48 h
endpoint: TGI (µM)
Answers are plain numbers, in µM.

Provide each entry's TGI from the list below.
1. CCOC(=O)C1=C(C)N(Cc2ccccc2)C2(O)C(OC)CC(=O)C3C(=O)N(c4ccccc4)C(=O)C132 (stereo not given)
2. COC(=O)c1cc(C)[nH]c2c(C)cc3nc4ccccc4c3c12
3. COc1ccc(S(=O)(=O)Nc2cc(Sc3cccc4cccnc34)c(O)c3ccccc23)cc1
4. CN1CCN(c2nc3cc(F)ccc3n3cccc23)CC1

Result:
[81.6, 42.2, 8.08, 81.8]
